Tested on: U251 CNS
procedureText: NCI-60 one-dose screen, 48 h (100 = growth as untreated, 0 = no growth, -100 = all killed)
conditionSet: 10 µM
The panel holds about 83,000 compounds, 20% with a hit somewhere; the sample as a whole holds those more often.
Listed here: items and their measured growth.
Quick reminder: number only, in %, skip the unit.

INSERT INTO assay_data (compound, tgt, unitname, valueobserved) VALUES
  ('CCc1ccccc1-n1c(N)c(C#N)c(-c2ccc(OC)c(OC)c2)c(C#N)c1=O', 'U251 CNS', '%', 101),
  ('CCCCCCCCCCCCCCCc1ccc(Cl)c(O)c1Cl (tested in a mixture with another compound)', 'U251 CNS', '%', 92.9),
  ('Cc1[nH]c(-c2nc3ccccc3[nH]2)c(C)c1C(=O)NC(C)C1CCCCC1 (stereo unspecified)', 'U251 CNS', '%', 96.7),
  ('CC#C[C@]1(O)CC[C@H]2[C@@H]3CCC4=CC(=O)CCC4=C3[C@@H](c3ccc4c(c3)OCO4)C[C@@]21C', 'U251 CNS', '%', 76.1),
  ('CNC(=O)c1cc(Oc2ccc(CC(=O)Nc3cc(C(C)(C)C)nn3C)cc2)ccn1', 'U251 CNS', '%', 84.5);

Note: attention shifts to another entry.
growth lookup needed for CC(C)(C)c1cc(NC(=O)Cc2ccc(-c3cnc4cc(-c5cnn(CCN6CCOCC6)c5)ccc4n3)cc2)no1 , thanks.
22.1

====

System: SW-620 colon
procedureText: NCI-60 one-dose screen, 48 h (100 = growth as untreated, 0 = no growth, -100 = all killed)
conditionSet: 10 µM
About 83,000 compounds went through this panel and 20% of them were active in at least one assay; those are over-represented in the sample as a whole.
observedProperty: growth (%)
Quick reminder: number only, in %, skip the unit.

Solved entries:
INSERT INTO assay_data (compound, valueobserved) VALUES
  ('CNC(=O)c1cc(Oc2ccc(CC(=O)Nc3cc(C(C)(C)C)nn3C)cc2)ccn1', 87.2),
  ('CC(C)(C)c1cc(NC(=O)Cc2ccc(-c3cnc4cc(-c5cnn(CCN6CCOCC6)c5)ccc4n3)cc2)no1', 15.5),
  ('CCc1ccccc1-n1c(N)c(C#N)c(-c2ccc(OC)c(OC)c2)c(C#N)c1=O', 116),
  ('CC1(C)OB(c2ccc(Cn3cc(F)c(=O)[nH]c3=O)cc2)OC1(C)C', 95.8),
  ('CC#C[C@]1(O)CC[C@H]2[C@@H]3CCC4=CC(=O)CCC4=C3[C@@H](c3ccc4c(c3)OCO4)C[C@@]21C', 84.7),
  ('O=C(O)c1sccc1O', 93.3);

Note: attention shifts to another entry.
growth lookup needed for Cc1[nH]c(-c2nc3ccccc3[nH]2)c(C)c1C(=O)NC(C)C1CCCCC1 (configuration not stated) , thanks.
92.9

====

Listed here: items and their measured growth.
Test system: MOLT-4 leukemia
procedureText: NCI-60 one-dose screen, 48 h (100 = growth as untreated, 0 = no growth, -100 = all killed)
conditionSet: 10 µM
Experimental: Growth inhibition of the MOLT-4 human tumor cell line is measured as a screen for anti-cancer activity. Cells are grown in 96 well plates and exposed to the test compound for 48 hours. Compounds are tested at a single concentration, which is 10^-5 M for most compounds. The reported endpoint is percent growth (GI% or GIPRCNT), where numbers from 0 - 100% represent growth inhibition, and numbers from -100% - 0 represent cell death. For example, a value of 40 represents 60% growth inhibition. […]
Compounds without any hit were thinned out: in the full panel of roughly 83,000, 20% have a hit.
Quick reminder: number only, in %, skip the unit.

Solved entries:
INSERT INTO results (compound, valueobserved) VALUES
  ('CC1(C)OB(c2ccc(Cn3cc(F)c(=O)[nH]c3=O)cc2)OC1(C)C', 99.3),
  ('CNC(=O)c1cc(Oc2ccc(CC(=O)Nc3cc(C(C)(C)C)nn3C)cc2)ccn1', -64.3);

growth lookup needed for CCc1ccccc1-n1c(N)c(C#N)c(-c2ccc(OC)c(OC)c2)c(C#N)c1=O , thanks.
95.7

growth lookup needed for CCCCCCCCCCCCCCCc1ccc(Cl)c(O)c1Cl (tested in a mixture with another compound) , thanks.
104

growth lookup needed for O=C(O)c1sccc1O , thanks.
46.1

====

Tested on: CCRF-CEM leukemia
procedureText: NCI-60 one-dose screen, 48 h (100 = growth as untreated, 0 = no growth, -100 = all killed)
conditionSet: 10 µM
About 83,000 compounds went through this panel and 20% of them were active in at least one assay; those are over-represented in the sample as a whole. The source made the active and inactive calls. How the source made its calls: active means growth percent below 10; inactive means the rest.
observedProperty: growth

growth lookup needed for CNC(=O)c1cc(Oc2ccc(CC(=O)Nc3cc(C(C)(C)C)nn3C)cc2)ccn1 , thanks.
66.1% (inactive)

growth lookup needed for CC(C)(C)c1cc(NC(=O)Cc2ccc(-c3cnc4cc(-c5cnn(CCN6CCOCC6)c5)ccc4n3)cc2)no1 , thanks.
15.5% (inactive)

growth lookup needed for Cc1[nH]c(-c2nc3ccccc3[nH]2)c(C)c1C(=O)NC(C)C1CCCCC1 (stereo not given) , thanks.
81.3% (inactive)

growth lookup needed for CC#C[C@]1(O)CC[C@H]2[C@@H]3CCC4=CC(=O)CCC4=C3[C@@H](c3ccc4c(c3)OCO4)C[C@@]21C , thanks.
89.9% (inactive)

growth lookup needed for CC1(C)OB(c2ccc(Cn3cc(F)c(=O)[nH]c3=O)cc2)OC1(C)C , thanks.
112% (inactive)

====

Tested on: CCRF-CEM leukemia
procedureText: NCI-60 one-dose screen, 48 h (100 = growth as untreated, 0 = no growth, -100 = all killed)
conditionSet: 10 µM unless noted
About 83,000 compounds went through this panel and 20% of them were active in at least one assay; those are over-represented in the sample as a whole.
Listed here: items and their measured growth.
Quick reminder: number only, in %, skip the unit.

Solved entries:
INSERT INTO measurements (molecule, observedproperty, valueobserved) VALUES
  ('CCCCOc1cc(C(=O)NCCN(CC)CC)c2ccccc2n1', 'growth', 89.4),
  ('Cc1ccc(NCSc2ccc(Cl)cc2)cc1', 'growth', 17.8),
  ('CC1CCCC(=O)O1 (stereo not drawn)', 'growth', 111),
  ('Cc1ccc(-c2noc(C)n2)cc1', 'growth', 103);

growth lookup needed for Cc1nnc(NC/C=C/c2ccccc2)s1 , thanks.
113

growth lookup needed for Clc1ccc(NC(Nc2ccc(Cl)cc2)C(Cl)(Cl)Cl)cc1 , thanks.
95

growth lookup needed for COc1ccccc1C(C)=O , thanks.
102

growth lookup needed for Oc1ccccc1C=NCC1CCC(CN=Cc2ccccc2O)CC1 (stereo not drawn) , thanks.
83.9

====

Tested on: A498 renal
procedureText: NCI-60 one-dose screen, 48 h (100 = growth as untreated, 0 = no growth, -100 = all killed)
conditionSet: 10 µM unless noted
The panel holds about 83,000 compounds, 20% with a hit somewhere; the sample as a whole holds those more often.
Listed here: items and their measured growth.
Quick reminder: number only, in %, skip the unit.

Solved entries:
INSERT INTO measurements (compound, tgt, unitname, valueobserved) VALUES
  ('Cc1ccc2nc3c(nc2c1)-c1cccc2cccc-3c12', 'A498 renal', '%', 83.1),
  ('N#C/C(=C/c1c(O)ccc2ccccc12)C(N)=O', 'A498 renal', '%', 107),
  ('COc1ccc(Cl)cc1C(=O)NCCc1ccc(S(=O)(=O)NC(=O)NC2CCCCC2)cc1', 'A498 renal', '%', 73.2),
  ('Oc1ccccc1C=NCC1CCC(CN=Cc2ccccc2O)CC1 (stereo unspecified)', 'A498 renal', '%', 117);

growth lookup needed for O=C(N/N=C/c1cccc2ccccc12)C1CC1 , thanks.
102

growth lookup needed for O=[N+]([O-])c1ccc(/C=N\NC(=S)Nc2ccc(F)cc2)cc1 , thanks.
119

====

Listed here: items and their measured growth.
Test system: SF-268 CNS
procedureText: NCI-60 one-dose screen, 48 h (100 = growth as untreated, 0 = no growth, -100 = all killed)
conditionSet: 10 µM unless noted
This is part of a sample that, as a whole, favours compounds with a hit. Of some 83,000 tested, about 20% had one in any assay.
Quick reminder: number only, in %, skip the unit.

Solved entries:
INSERT INTO measurements (compound, valueobserved) VALUES
  ('O=C1c2ccccc2C(=O)N1/N=C/c1ccc2c(c1)OCO2', 103),
  ('CNC(=O)c1cccnc1', 103),
  ('Cc1ccc(S(=O)(=O)NCN2C(=O)c3ccccc3C2=O)cc1', 106),
  ('O=C=NC(c1ccccc1)(c1ccccc1)c1ccccc1', 104),
  ('Cc1c(Cl)cccc1NCN1C(=O)c2ccccc2C1=O', 107),
  ('CC1=C(/C=C/C(C)=C/C=C/C(C)=C/C(=O)Nc2ccc(O)cc2)C(C)(C)CCC1', 60.8),
  ('CC1=NN(c2ccccc2)C(=O)C1C(=O)c1ccccc1 (configuration not stated)', 95.4),
  ('COc1cc(C(=O)N/N=C/c2ccc(N(C)C)cc2)cc(OC)c1OC', 57.6);

growth lookup needed for S=C1SCN(Cc2ccccc2)CN1Cc1ccccc1 , thanks.
73.5

growth lookup needed for N=C1N=C(N)CS1 , thanks.
107

growth lookup needed for O=[N+]([O-])c1ccc2nc3c4ccccc4c4ccccc4c3nc2c1 , thanks.
78

growth lookup needed for CC1(c2ccc3ccccc3c2)CCC(=O)O1 (configuration not stated) , thanks.
99.7
